Molecular target: JAK3 (Homo sapiens)
Sequence (P52333 whole entry): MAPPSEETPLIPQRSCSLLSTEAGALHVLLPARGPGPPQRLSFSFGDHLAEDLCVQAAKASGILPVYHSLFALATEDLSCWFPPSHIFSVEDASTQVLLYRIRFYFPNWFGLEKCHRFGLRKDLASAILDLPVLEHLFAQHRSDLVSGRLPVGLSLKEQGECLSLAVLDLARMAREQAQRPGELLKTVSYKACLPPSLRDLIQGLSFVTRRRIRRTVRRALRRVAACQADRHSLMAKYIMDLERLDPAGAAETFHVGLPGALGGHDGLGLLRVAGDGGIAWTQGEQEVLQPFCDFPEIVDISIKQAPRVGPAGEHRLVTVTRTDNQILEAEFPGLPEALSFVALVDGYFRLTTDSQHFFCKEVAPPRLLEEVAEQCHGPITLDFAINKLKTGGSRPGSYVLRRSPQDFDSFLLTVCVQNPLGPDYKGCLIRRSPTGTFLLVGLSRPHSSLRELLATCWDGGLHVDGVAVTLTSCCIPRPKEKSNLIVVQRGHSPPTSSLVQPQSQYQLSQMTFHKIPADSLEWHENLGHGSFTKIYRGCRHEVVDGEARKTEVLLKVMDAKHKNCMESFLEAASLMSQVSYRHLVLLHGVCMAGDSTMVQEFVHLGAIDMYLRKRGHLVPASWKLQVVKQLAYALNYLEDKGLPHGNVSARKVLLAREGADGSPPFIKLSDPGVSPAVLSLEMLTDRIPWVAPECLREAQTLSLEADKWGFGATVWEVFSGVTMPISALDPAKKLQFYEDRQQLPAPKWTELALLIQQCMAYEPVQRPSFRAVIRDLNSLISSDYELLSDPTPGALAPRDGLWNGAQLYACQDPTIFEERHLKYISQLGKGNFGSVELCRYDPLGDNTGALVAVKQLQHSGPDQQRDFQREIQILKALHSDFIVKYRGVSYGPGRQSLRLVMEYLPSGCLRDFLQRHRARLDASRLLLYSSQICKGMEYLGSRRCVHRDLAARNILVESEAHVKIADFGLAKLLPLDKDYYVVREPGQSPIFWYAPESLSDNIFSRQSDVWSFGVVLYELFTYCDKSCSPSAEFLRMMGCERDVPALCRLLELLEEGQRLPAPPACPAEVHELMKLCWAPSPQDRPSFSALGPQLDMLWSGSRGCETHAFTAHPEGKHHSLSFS
Assay: JAK3 inhibition assay (33P incorporation into poly(Glu)4Tyr)
Assay type: biochemical
Settings: Table 6; enzyme inhibition data (Ki)
pKi: −log10 of the molar value.
Recorded Endpoint: pKi

Exercise: Form field: reported pKi of CCN(CCO)C(=O)c1cc(-c2ccnc3[nH]ccc23)c[nH]1 [compound 361]
Solution: > 6.30

***
Exercise: Requested read-out: pKi. Entry: C=CCN(CC=C)C(=O)c1cc(-c2c(F)cnc3[nH]ccc23)c[nH]1 [compound 383]
Solution: > 6.30

Exercise: I'd like to know its pKi. The molecule in question is C[C@@H](Nc1nc(-c2ccnc3[nH]ccc23)ncc1F)C(=O)NCC(F)(F)F [compound 201]
Solution: > 6.30

Exercise: Given the molecule COc1cccc(OC)c1-c1ccnc2[nH]ccc12 [compound 222] , what is its reported pKi?
Solution: < 5.30

Exercise: Form field: reported pKi of N#CCN(Cc1ccccc1)C(=O)c1cc(-c2c(F)cnc3[nH]ccc23)c[nH]1 [compound 391]
Solution: > 6.30

Exercise: Any idea what pKi was measured for CCCCN(CCC#N)C(=O)c1cc(-c2ccnc3[nH]ccc23)c[nH]1 [compound 303] ?
Solution: > 6.30

Exercise: # input molecule: O=C(c1cc(-c2c(Cl)cnc3[nH]ccc23)c[nH]1)N1CCCC1CO (stereo not drawn) [compound 346] ; wanted: its pKi
Solution: > 6.30

Exercise: Which pKi reading was recorded for the molecule Cc1ccccc1-c1ccnc2[nH]ccc12 [compound 219] ?
Solution: 5.30 to 6.30

Exercise: Item under review: C[C@@H]1CC[C@H](C)N1C(=O)c1csc(-c2ccnc3[nH]ccc23)n1 [compound 417] . Reported pKi?
Solution: > 6.30
